# targetUnderTest: Corticotropin-releasing factor receptor 2/Corticotropin-releasing factor-binding protein (Homo sapiens, UniProt P24387+Q13324)
# Sequence (Q13324 whole entry): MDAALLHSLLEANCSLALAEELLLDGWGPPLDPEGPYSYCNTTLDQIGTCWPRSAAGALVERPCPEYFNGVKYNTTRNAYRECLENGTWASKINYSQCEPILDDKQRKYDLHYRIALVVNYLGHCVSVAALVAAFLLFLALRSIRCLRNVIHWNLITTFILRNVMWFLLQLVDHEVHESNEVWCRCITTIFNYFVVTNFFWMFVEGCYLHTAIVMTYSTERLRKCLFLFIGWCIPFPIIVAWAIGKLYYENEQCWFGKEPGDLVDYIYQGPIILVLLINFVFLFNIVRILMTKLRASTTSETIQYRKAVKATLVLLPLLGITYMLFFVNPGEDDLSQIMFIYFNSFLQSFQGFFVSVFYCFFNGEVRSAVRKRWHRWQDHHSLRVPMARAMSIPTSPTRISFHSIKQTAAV
# Sequence (P24387 whole entry): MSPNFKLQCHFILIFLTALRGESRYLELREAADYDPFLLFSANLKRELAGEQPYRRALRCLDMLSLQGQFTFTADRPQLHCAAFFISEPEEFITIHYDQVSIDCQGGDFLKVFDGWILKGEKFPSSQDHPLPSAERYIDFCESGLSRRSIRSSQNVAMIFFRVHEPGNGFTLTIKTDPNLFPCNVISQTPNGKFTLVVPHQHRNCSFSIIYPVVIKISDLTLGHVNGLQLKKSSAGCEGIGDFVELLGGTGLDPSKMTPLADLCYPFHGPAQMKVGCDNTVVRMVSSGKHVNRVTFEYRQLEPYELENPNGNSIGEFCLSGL
# runDescription: Dose Response confirmation of uHTS hits for small molecule antagonists of the CRF-binding protein and CRF-R2 receptor complex.
# Assay type: functional
# cond: read-out: IC50_Mean
Activity calls are given as the source filed them.
observable: IC50

>  <compound>
CC(C)c1cc(NC(=O)c2ccccc2)cc(C(C)C)c1O

>  <experimentalResult>
< 0.368 µM (active)

$$$$
>  <compound>
COCCn1c(=N)c(C(=O)NCc2ccco2)cc2c(=O)n3cc(C)ccc3nc21

>  <experimentalResult>
> 47.1 µM (inactive)

$$$$
>  <compound>
CC(C)Cc1csc(NC(=O)c2ccc(F)cc2)c1C(=O)O

>  <experimentalResult>
10.3 µM (active)

$$$$
>  <compound>
S=C(Nc1ccc2c(c1)OCO2)Nc1ccccc1Cl

>  <experimentalResult>
> 47.1 µM (inactive)

$$$$
>  <compound>
Clc1ccc2nncn2n1

>  <experimentalResult>
> 47.1 µM (inactive)

$$$$
>  <compound>
COC(=O)Cc1ccc(NC(=S)NCCC(C)C)cc1

>  <experimentalResult>
> 47.1 µM (inactive)

$$$$
>  <compound>
COc1cc(C2C(C#N)=C(N)Oc3[nH]nc(-c4ccccn4)c32)cc(OC)c1OC (stereo not drawn)

>  <experimentalResult>
> 47.1 µM (inactive)

$$$$
>  <compound>
Cc1cc(/C=N/NC(=O)c2ccoc2C)cc(C)c1O

>  <experimentalResult>
> 47.1 µM (inactive)

$$$$
>  <compound>
O=C(CCc1ccccc1)Nc1c(F)cccc1F

>  <experimentalResult>
> 47.1 µM (inactive)

$$$$
>  <compound>
Cc1cccc(C)c1N1CCN(C(=O)c2ccc3c(c2)OCO3)CC1

>  <experimentalResult>
> 47.1 µM (inactive)

$$$$
>  <compound>
Nc1ncnc(NNC(=O)CNC(=O)c2c(F)cccc2Cl)c1[N+](=O)[O-]

>  <experimentalResult>
> 47.1 µM (inactive)

$$$$
>  <compound>
Cc1cc(C)c2c(CC(=O)Nc3nccs3)coc2c1

>  <experimentalResult>
> 47.1 µM (inactive)

$$$$
>  <compound>
O=C(NCc1ccncc1)c1cc(F)c(F)cc1Cl

>  <experimentalResult>
> 47.1 µM (inactive)

$$$$

----------
Target or system Cytochrome P450 3A4 (Homo sapiens): recorded AC50 listed per item.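 Note: CYP3A4 tested as one member of a cytochrome P450 panel screen.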
Peptide text beside a SMILES is read from it. * marks the point of attachment. Cbz = O=C(OCc1ccccc1)*
observable: AC50

>  <compound>
C/C(=N\NC(=O)c1cccc(Cl)c1)c1cccc(NC(=O)C(C)C)c1

>  <observable>
AC50

>  <experimentalResult>
15.8 µM (inconclusive)

$$$$
>  <compound>
COc1ccc(-c2nc3cnc(Oc4ccccc4)nc3n(C3CC3)c2=O)cc1

>  <observable>
AC50

>  <experimentalResult>
15.8 µM (inconclusive)

$$$$
>  <compound>
O=c1cnc2cnc(Oc3cccc(Cl)c3)nc2n1Cc1ccc(F)cc1

>  <observable>
AC50

>  <experimentalResult>
25.1 µM (inconclusive)

$$$$
>  <compound>
C[C@@H](C(=O)O)/C(=C/c1ccc2c(c1)OCO2)C(=O)O

>  <observable>
AC50

>  <experimentalResult>
6.31 µM (inconclusive)

$$$$
>  <compound>
Cc1ccc(NC(=O)N/C=C/c2ccco2)cc1C

>  <observable>
AC50

>  <experimentalResult>
12.6 µM (inconclusive)

$$$$
>  <compound>
O=C(CCc1nc(-c2ccccc2)c(-c2ccccc2)o1)OCc1ccc(Cl)cc1

>  <observable>
AC50

>  <experimentalResult>
35.5 µM (inconclusive)

$$$$
>  <compound>
COc1ccc(C(=O)NCc2cn3ccccc3n2)cc1

>  <observable>
AC50

>  <experimentalResult>
28.2 µM (inconclusive)

$$$$
>  <compound>
Cn1cc(-c2nc3cnc(N4CCOCC4)nc3n(CCC#N)c2=O)c2ccccc21

>  <observable>
AC50

>  <experimentalResult>
15.8 µM (inconclusive)

$$$$
>  <compound>
CCCN(CCC)C(=O)Cc1c(-c2ccc(Cl)cc2)nc2c(Cl)cc(Cl)cn12 [ALPDEM]

>  <observable>
AC50

>  <experimentalResult>
0.794 µM (inconclusive)

$$$$
>  <compound>
COC(=O)CCC(NC(=O)OCc1ccccc1)C(=O)NC(CC(C)C)C(=O)OC (stereo not given) (Cbz-Glu(OMe)-Leu-OMe; configuration not given here)

>  <observable>
AC50

>  <experimentalResult>
14.1 µM (inconclusive)

$$$$

----------
# targetUnderTest: Induced myeloid leukemia cell differentiation protein Mcl-1 (Homo sapiens)
# Sequence (Q07820 whole entry): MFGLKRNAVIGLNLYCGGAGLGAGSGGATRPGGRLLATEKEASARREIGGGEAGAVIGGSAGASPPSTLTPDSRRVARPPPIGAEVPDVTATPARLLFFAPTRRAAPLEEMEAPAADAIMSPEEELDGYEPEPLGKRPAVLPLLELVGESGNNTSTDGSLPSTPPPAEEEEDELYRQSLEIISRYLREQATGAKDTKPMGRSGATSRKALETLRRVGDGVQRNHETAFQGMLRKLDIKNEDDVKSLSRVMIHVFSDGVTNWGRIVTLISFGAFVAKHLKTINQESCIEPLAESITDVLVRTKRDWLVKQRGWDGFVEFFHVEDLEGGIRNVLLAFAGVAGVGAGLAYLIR
# Assay type: functional
Active and inactive are the calls of the source.
Listing of recorded IC50 by entry.
observable: IC50

>  <molecule>
O=C(O)c1ccc(N/N=C/c2ccc(OC(=O)c3cccc(Cl)c3)cc2)cc1

>  <experimentalResult>
8.08 µM (active)

$$$$
>  <molecule>
CCN(CC)c1ccc(NC(=O)CCNC(=O)c2ccco2)cc1

>  <experimentalResult>
9.57 µM (not active)

$$$$
>  <molecule>
COc1ccc(C(c2c(O)ccc3ccccc23)N2CCOCC2)c(OC)c1 (stereo unspecified)

>  <experimentalResult>
1.62 µM (active)

$$$$
>  <molecule>
CC(C(=O)Nc1cc([N+](=O)[O-])ccc1Cl)N1CCN(c2ccc(O)cc2)CC1 (stereo unspecified)

>  <experimentalResult>
4.33 µM (not active)

$$$$
>  <molecule>
NC1=NC(=O)/C(=C/c2cn(CCC(=O)O)nc2-c2ccc(Cl)cc2)S1

>  <experimentalResult>
4.92 µM (active)

$$$$
>  <molecule>
O=c1cc(-c2ccc(O)c(-c3c(O)cc(O)c4c(=O)cc(-c5ccc(O)cc5)oc34)c2)oc2cc(O)cc(O)c12 [AMENTOFLAVONE]

>  <experimentalResult>
1.63 µM (active)

$$$$
>  <molecule>
O=C(Nc1cccc(Oc2ccc(C(=O)O)c(C(=O)O)c2)c1)c1ccc(-c2ccccc2)cc1

>  <experimentalResult>
4.44 µM (active)

$$$$
>  <molecule>
COc1ccc(C(=O)Nc2ccc(N3CCCC3)cc2)cc1

>  <experimentalResult>
3.44 µM (active)

$$$$
>  <molecule>
CC(C)c1ccc(Nc2nnc(SCC(=O)c3nnc(-c4ccccc4)o3)s2)cc1

>  <experimentalResult>
2.72 µM (active)

$$$$
>  <molecule>
Cc1ccc2[nH]c(C)c(/C=C3/C(=N)N4C(=NC3=O)SN=C4S(=O)(=O)C(C)C)c2c1

>  <experimentalResult>
11.8 µM (not active)

$$$$
>  <molecule>
Cc1ccc(C(C)C)c(OCc2ccc(C(=O)N/N=C/c3ccc(O)cc3O)cc2)c1

>  <experimentalResult>
4.97 µM (active)

$$$$

----------
Listing of recorded AC50 by entry.
# targetUnderTest: Cytochrome P450 2C9 (Homo sapiens, UniProt P11712)
# Sequence (P11712 whole entry): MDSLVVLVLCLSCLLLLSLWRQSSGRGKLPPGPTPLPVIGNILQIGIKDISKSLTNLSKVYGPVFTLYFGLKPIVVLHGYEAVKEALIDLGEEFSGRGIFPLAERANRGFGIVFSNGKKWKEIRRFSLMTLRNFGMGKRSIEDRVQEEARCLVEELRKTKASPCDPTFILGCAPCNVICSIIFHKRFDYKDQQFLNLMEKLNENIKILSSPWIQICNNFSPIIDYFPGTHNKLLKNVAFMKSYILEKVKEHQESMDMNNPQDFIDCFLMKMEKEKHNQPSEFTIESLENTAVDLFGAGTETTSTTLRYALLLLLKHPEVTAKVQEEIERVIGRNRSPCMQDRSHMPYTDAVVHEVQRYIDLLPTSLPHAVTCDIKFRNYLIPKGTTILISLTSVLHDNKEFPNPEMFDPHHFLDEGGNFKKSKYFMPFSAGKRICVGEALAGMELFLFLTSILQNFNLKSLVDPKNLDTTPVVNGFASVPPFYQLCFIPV

>  <molecule>
COc1ccc(-c2nc(C(=O)N3CCN(C)CC3)sc2-c2ccc(OC)cc2)cc1

>  <AC50>
20 µM (inconclusive)

$$$$
>  <molecule>
N[C@@H](Cc1cc(-c2ccc(Cl)cc2Cl)cc(CP(=O)(O)O)c1O)C(=O)O

>  <AC50>
20 µM (inconclusive)

$$$$
>  <molecule>
O=C(N/C(=C\c1cccs1)C(=O)N1CCCCCC1)c1ccccc1

>  <AC50>
31.6 µM (inconclusive)

$$$$
>  <molecule>
COc1cccc(-c2cncnc2NCc2ccccc2)c1

>  <AC50>
0.158 µM (inconclusive)

$$$$
>  <molecule>
Cc1n[nH]c(C)c1S(=O)(=O)N1CCOCC1

>  <AC50>
17.8 µM (inconclusive)

$$$$
>  <molecule>
Cc1nn(CC(=O)NCc2ccccc2Cl)c(C)c1[N+](=O)[O-]

>  <AC50>
12.6 µM (inconclusive)

$$$$
>  <molecule>
O=C(N/N=C/c1ccc(Cl)cc1)Nc1ccccc1

>  <AC50>
25.1 µM (inconclusive)

$$$$
>  <molecule>
O=C(O)c1nn(-c2ccccc2)ccc1=O

>  <AC50>
0.398 µM (inconclusive)

$$$$
>  <molecule>
COc1ccccc1CNc1nc(-c2c(C)noc2C)nc2ccccc12

>  <AC50>
1 µM (inconclusive)

$$$$
>  <molecule>
Cc1ccccc1-c1nc(C[S+]([O-])CC(=O)NCCN2CCN(Cc3ccccc3)CC2)c(C)o1 (stereo unspecified)

>  <AC50>
39.8 µM (inconclusive)

$$$$
>  <molecule>
Cc1ccc(OCC(=O)Nc2ccccc2-c2ccccc2)cc1

>  <AC50>
11.2 µM (inconclusive)

$$$$

----------
# targetUnderTest: Rac GTPase-activating protein 1 (Homo sapiens)
# Sequence (Q9H0H5 whole entry): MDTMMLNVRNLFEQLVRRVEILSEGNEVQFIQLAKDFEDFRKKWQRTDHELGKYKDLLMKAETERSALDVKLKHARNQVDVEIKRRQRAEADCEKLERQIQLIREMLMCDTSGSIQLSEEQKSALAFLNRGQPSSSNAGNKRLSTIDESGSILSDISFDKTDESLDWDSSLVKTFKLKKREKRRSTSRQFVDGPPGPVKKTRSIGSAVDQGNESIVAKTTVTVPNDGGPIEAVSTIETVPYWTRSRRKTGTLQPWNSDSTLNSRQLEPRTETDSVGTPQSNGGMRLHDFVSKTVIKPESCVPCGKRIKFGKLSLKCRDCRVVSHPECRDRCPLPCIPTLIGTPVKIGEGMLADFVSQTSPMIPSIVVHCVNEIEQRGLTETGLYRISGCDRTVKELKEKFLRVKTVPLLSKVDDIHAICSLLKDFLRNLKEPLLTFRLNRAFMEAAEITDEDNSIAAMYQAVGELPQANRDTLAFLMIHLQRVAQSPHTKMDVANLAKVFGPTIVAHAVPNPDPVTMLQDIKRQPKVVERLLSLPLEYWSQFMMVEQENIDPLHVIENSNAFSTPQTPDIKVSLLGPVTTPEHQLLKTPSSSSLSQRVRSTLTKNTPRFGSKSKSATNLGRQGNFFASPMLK
# runDescription: blockers of MgcRacGAP-driven Rac1 GTP hydrolysis – biochemical, ADP Hunter fluorescence, primary and confirmatory, confirmation (AID 624330)
# Format: functional
Activity calls are given as the source filed them.

>  <chemicalSmiles>
CN(C)S(=O)(=O)c1cc(NC(=O)CNCCN2CCOCC2)ccc1Cl

>  <IC50>
154 µM (active)

$$$$
>  <chemicalSmiles>
CN(C)S(=O)(=O)c1cccc(NC(=O)CNCC2CCCCC2)c1

>  <IC50>
115 µM (active)

$$$$
>  <chemicalSmiles>
Cn1c(=O)c2ccccc2n2c(S)nnc12

>  <IC50>
19.9 µM (active)

$$$$
>  <chemicalSmiles>
O=C(Oc1ccc(N(C(=O)c2ccncc2)S(=O)(=O)c2cccs2)cc1)c1ccncc1

>  <IC50>
86 µM (active)

$$$$
>  <chemicalSmiles>
COc1cc(-c2nc3ccccn3c2/N=C/c2cc(OC)c(O)cc2Cl)ccc1O

>  <IC50>
69.7 µM (active)

$$$$
>  <chemicalSmiles>
O=[N+]([O-])/C=C/c1ccc2c(ccn2Cc2ccccc2)c1

>  <IC50>
23.3 µM (active)

$$$$
>  <chemicalSmiles>
COc1cc(/C=N/NC(=O)CC(=O)NC2CCCCC2)ccc1O

>  <IC50>
51.6 µM (active)

$$$$
>  <chemicalSmiles>
C=CCSC1=NC(=O)/C(=C/c2cccs2)S1

>  <IC50>
29.7 µM (active)

$$$$
>  <chemicalSmiles>
C/C(CC(=O)Nc1ccc(N(C)C)cc1)=N\NC(=O)c1ccc(F)cc1

>  <IC50>
47.4 µM (active)

$$$$
>  <chemicalSmiles>
COc1ccc(/C=N/n2c(S)nnc2-c2[nH]nc3c2CCC3)c(OC)c1OC

>  <IC50>
69.9 µM (active)

$$$$
